Assay: Phase 1 first-in-human study, pharmacokinetics in plasma
Conditions: cohort A, 20 mg PO single dose
quantity.kind: Cmax, Max
Please make sure the unit comes right after the number.

# count of solved cases: 3
INSERT INTO assay_data (compound, meas_value) VALUES
  ('COC(=O)C12CC3CC(CC(=O)O)C1N(CCc1c2[nH]c2ccccc12)C3 (stereo not shown) [M5]', '38 ng/mL'),
  ('COC(=O)C12CC3CC(CCO)C1N(C=Cc1c2[nH]c2ccccc12)C3 (stereo not shown) [M2]', '62 ng/mL'),
  ('COCC[C@H]1CC2CN3CCc4c([nH]c5ccccc45)[C@](C(=O)OC)(C2)[C@H]13 [18-MC, 18-methoxycoronaridine]', '182 ng/mL');

Next up:
Ask: Which Cmax, Max value belongs to COCCC1CC2CN3C=Cc4c([nH]c5ccccc45)C(C(=O)OC)(C2)C13 (stereo not shown) [M4] ?
Reply: 528 ng/mL

###

Test: Phase 1 first-in-human study, pharmacokinetics in plasma
Conditions: cohort A, 20 mg PO single dose
quantity.kind: Cmax, Min
Please make sure the unit comes right after the number.

INSERT INTO measurements (compound, quantity_kind, meas_value) VALUES
  ('COC(=O)C12CC3CC(CCO)C1N(C=Cc1c2[nH]c2ccccc12)C3 (stereo not shown)', 'Cmax, Min', '27 ng/mL'),
  ('COCCC1CC2CN3C=Cc4c([nH]c5ccccc45)C(C(=O)OC)(C2)C13 (stereo not shown)', 'Cmax, Min', '242 ng/mL'),
  ('COCC[C@H]1CC2CN3CCc4c([nH]c5ccccc45)[C@](C(=O)OC)(C2)[C@H]13', 'Cmax, Min', '92 ng/mL');

Next up:
Ask: Which Cmax, Min value belongs to COC(=O)C12CC3CC(CC(=O)O)C1N(CCc1c2[nH]c2ccccc12)C3 (stereo not shown) ?
Reply: 12 ng/mL

###

Biological target: CYP2C19 (Homo sapiens)
Sequence (P33261 whole entry): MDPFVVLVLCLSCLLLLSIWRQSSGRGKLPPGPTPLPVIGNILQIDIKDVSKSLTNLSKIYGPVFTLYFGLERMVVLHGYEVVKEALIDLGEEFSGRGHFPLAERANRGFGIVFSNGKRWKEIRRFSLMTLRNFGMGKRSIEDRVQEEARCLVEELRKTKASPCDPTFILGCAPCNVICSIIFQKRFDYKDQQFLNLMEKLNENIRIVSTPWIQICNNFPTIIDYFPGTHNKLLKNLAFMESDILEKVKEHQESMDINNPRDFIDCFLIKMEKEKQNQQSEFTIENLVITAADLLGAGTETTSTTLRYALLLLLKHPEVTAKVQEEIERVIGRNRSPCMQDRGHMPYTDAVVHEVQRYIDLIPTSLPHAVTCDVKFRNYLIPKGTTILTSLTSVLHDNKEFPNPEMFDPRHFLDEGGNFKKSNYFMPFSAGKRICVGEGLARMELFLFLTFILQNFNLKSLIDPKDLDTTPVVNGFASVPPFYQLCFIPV
Details: recombinant enzyme
quantity.kind: IC50 (µM)
Form entry: value (µM) — number only.

Ask: Which IC50 value belongs to COCC[C@H]1CC2CN3CCc4c([nH]c5ccccc45)[C@](C(=O)OC)(C2)[C@H]13 ?
Reply: 4.9

###

Experiment: Phase 1 first-in-human study, pharmacokinetics in plasma
Settings: cohort B, 4 mg PO at 0 and +10 hours
Catalogue of Cmax, Max values

INSERT INTO assay_data (compound, meas_value) VALUES
  ('COCC[C@H]1CC2CN3CCc4c([nH]c5ccccc45)[C@](C(=O)OC)(C2)[C@H]13 [18-MC, 18-methoxycoronaridine]', '46 ng/mL');

Ask: Which Cmax, Max value belongs to COCCC1CC2CN3C=Cc4c([nH]c5ccccc45)C(C(=O)OC)(C2)C13 (stereo not shown) [M4] ?
Reply: 82 ng/mL

Ask: Which Cmax, Max value belongs to COC(=O)C12CC3CC(CC(=O)O)C1N(CCc1c2[nH]c2ccccc12)C3 (stereo not shown) [M5] ?
Reply: 9 ng/mL

Ask: Which Cmax, Max value belongs to COC(=O)C12CC3CC(CCO)C1N(C=Cc1c2[nH]c2ccccc12)C3 (stereo not shown) [M2] ?
Reply: 12 ng/mL

###

Target: CYP2A6 (Homo sapiens)
Sequence (P11509 whole entry): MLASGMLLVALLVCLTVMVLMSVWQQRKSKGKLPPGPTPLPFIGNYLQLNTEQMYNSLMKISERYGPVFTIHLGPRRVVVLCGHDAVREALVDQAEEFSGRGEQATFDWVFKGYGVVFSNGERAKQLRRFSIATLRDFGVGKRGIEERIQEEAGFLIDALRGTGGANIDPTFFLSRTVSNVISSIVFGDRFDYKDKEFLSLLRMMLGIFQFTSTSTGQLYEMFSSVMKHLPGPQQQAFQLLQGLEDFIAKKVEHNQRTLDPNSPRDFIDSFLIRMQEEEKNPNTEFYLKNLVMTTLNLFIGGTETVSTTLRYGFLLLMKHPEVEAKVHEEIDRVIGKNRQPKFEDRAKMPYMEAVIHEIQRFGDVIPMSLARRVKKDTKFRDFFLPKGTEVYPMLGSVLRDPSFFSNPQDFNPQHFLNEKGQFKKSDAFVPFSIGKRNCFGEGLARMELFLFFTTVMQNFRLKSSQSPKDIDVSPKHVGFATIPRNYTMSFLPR
Conditions: recombinant enzyme
pIC50: −log10 of the molar value.
quantity.kind: pIC50

Ask: Which pIC50 value belongs to COCC[C@H]1CC2CN3CCc4c([nH]c5ccccc45)[C@](C(=O)OC)(C2)[C@H]13 ?
Reply: < 4.00

###

Biological target: rat α3β4 nicotinic acetylcholine receptor (nAChR) (Rattus norvegicus, UniProt P04757+P12392)
Construct: expressed in transfected cells; host or cells: HEK 293 (ATCC CRL1573), transient, Lipofectamine 2000
Sequence (P04757 26-499): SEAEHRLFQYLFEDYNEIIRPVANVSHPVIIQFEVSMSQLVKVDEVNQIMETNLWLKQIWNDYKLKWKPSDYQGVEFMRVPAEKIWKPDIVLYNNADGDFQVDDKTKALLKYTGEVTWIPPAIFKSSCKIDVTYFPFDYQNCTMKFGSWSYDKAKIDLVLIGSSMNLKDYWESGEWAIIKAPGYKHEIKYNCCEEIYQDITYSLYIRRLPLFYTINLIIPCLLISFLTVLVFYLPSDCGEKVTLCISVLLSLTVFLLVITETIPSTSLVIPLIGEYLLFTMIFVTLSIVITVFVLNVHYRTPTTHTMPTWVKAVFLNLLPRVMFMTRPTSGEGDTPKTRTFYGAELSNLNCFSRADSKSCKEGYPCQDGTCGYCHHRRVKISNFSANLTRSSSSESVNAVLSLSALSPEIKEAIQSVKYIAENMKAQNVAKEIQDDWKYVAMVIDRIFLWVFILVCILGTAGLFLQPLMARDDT
Sequence (P12392 21-495): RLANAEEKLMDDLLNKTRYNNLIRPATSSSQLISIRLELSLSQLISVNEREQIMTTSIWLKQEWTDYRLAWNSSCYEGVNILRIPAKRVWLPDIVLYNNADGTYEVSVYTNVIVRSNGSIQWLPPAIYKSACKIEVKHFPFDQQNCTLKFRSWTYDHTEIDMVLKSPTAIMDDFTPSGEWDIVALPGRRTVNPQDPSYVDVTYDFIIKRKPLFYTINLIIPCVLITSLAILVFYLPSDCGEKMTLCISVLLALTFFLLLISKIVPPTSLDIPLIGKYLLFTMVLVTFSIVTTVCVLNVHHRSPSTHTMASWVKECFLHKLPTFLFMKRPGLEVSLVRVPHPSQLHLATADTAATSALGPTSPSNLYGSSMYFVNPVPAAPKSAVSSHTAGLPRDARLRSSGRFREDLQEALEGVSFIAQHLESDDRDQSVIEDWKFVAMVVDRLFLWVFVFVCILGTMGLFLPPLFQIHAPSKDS
Experiment: cell-based
Details: read-out: IC50, inhibition of ACh-evoked currents
quantity.kind: IC50 (nM)
Form entry: value (nM) — number only.

Ask: Which IC50 value belongs to COCC[C@H]1CC2CN3CCc4c([nH]c5ccccc45)[C@](C(=O)OC)(C2)[C@H]13 ?
Reply: 800

###

Assay: Phase 1 first-in-human study, pharmacokinetics in plasma
Settings: both, human, plasma, po, 4 mg
quantity.kind: Tmax

INSERT INTO results (compound, meas_value) VALUES
  ('COCCC1CC2CN3C=Cc4c([nH]c5ccccc45)C(C(=O)OC)(C2)C13 (stereo not drawn)', '7.3 h');

Ask: Which Tmax value belongs to COC(=O)C12CC3CC(CCO)C1N(C=Cc1c2[nH]c2ccccc12)C3 (stereo not drawn) ?
Reply: 11.8 h

Ask: Which Tmax value belongs to COC(=O)C12CC3CC(CC(=O)O)C1N(CCc1c2[nH]c2ccccc12)C3 (stereo not drawn) ?
Reply: 2.9 h

###

Test: Phase 1 first-in-human study, pharmacokinetics in plasma
Conditions: both, human, plasma, po, 20 mg
Catalogue of AUC values

# count of solved cases: 2
INSERT INTO results (compound, quantity_kind, meas_value) VALUES
  ('COC(=O)C12CC3CC(CCO)C1N(C=Cc1c2[nH]c2ccccc12)C3 (stereo not drawn) [M2]', 'AUC', '563 ng·h/mL'),
  ('COCCC1CC2CN3C=Cc4c([nH]c5ccccc45)C(C(=O)OC)(C2)C13 (stereo not drawn) [M4]', 'AUC', '2690 ng·h/mL');

Ask: Which AUC value belongs to COC(=O)C12CC3CC(CC(=O)O)C1N(CCc1c2[nH]c2ccccc12)C3 (stereo not drawn) [M5] ?
Reply: 210 ng·h/mL

###

Assay: Phase 1 first-in-human study, pharmacokinetics in plasma
Settings: both, human, plasma, po, 20 mg, Cmax, Average, cohort A, 20 mg PO single dose
quantity.kind: Cmax (ng/mL)
Form entry: value (ng/mL) — number only.

# count of solved cases: 2
INSERT INTO measurements (molecule, meas_value) VALUES
  ('COC(=O)C12CC3CC(CCO)C1N(C=Cc1c2[nH]c2ccccc12)C3 (stereo not drawn) [M2]', 41),
  ('COCCC1CC2CN3C=Cc4c([nH]c5ccccc45)C(C(=O)OC)(C2)C13 (stereo not drawn) [M4]', 347);

Ask: Which Cmax value belongs to COC(=O)C12CC3CC(CC(=O)O)C1N(CCc1c2[nH]c2ccccc12)C3 (stereo not drawn) [M5] ?
Reply: 25

###

Assay: Phase 1 first-in-human study, pharmacokinetics in plasma
Conditions: cohort B, 4 mg PO at 0 and +10 hours
quantity.kind: Cmax, Min
Please make sure the unit comes right after the number.

# count of solved cases: 2
INSERT INTO assay_data (compound, meas_value) VALUES
  ('COC(=O)C12CC3CC(CC(=O)O)C1N(CCc1c2[nH]c2ccccc12)C3 (stereo not shown)', '3 ng/mL'),
  ('COC(=O)C12CC3CC(CCO)C1N(C=Cc1c2[nH]c2ccccc12)C3 (stereo not shown)', '8 ng/mL');

Ask: Which Cmax, Min value belongs to COCC[C@H]1CC2CN3CCc4c([nH]c5ccccc45)[C@](C(=O)OC)(C2)[C@H]13 ?
Reply: 20 ng/mL

Ask: Which Cmax, Min value belongs to COCCC1CC2CN3C=Cc4c([nH]c5ccccc45)C(C(=O)OC)(C2)C13 (stereo not shown) ?
Reply: 65 ng/mL

###

Biological target: CYP2C9 (Homo sapiens)
Sequence (P11712 whole entry): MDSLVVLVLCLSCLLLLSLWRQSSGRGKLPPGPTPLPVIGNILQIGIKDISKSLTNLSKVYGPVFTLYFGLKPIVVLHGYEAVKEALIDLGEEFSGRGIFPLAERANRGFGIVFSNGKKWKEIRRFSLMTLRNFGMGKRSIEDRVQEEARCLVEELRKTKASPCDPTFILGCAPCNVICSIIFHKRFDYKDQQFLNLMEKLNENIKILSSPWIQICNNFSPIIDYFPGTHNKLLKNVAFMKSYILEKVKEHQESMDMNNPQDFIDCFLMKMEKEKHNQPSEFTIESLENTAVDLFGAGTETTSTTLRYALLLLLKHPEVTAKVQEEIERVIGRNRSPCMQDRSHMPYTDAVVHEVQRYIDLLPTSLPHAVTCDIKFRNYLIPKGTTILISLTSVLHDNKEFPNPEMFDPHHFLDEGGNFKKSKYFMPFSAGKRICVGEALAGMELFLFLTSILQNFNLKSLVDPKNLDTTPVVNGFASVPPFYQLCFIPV
Settings: recombinant enzyme
quantity.kind: pIC50
FYI, pIC50 means -log10 of a concentration in mol per litre.

Ask: Which pIC50 value belongs to COCC[C@H]1CC2CN3CCc4c([nH]c5ccccc45)[C@](C(=O)OC)(C2)[C@H]13 ?
Reply: 5.39

###

Target: CYP2E1 (Homo sapiens, UniProt P05181)
Sequence (P05181 whole entry): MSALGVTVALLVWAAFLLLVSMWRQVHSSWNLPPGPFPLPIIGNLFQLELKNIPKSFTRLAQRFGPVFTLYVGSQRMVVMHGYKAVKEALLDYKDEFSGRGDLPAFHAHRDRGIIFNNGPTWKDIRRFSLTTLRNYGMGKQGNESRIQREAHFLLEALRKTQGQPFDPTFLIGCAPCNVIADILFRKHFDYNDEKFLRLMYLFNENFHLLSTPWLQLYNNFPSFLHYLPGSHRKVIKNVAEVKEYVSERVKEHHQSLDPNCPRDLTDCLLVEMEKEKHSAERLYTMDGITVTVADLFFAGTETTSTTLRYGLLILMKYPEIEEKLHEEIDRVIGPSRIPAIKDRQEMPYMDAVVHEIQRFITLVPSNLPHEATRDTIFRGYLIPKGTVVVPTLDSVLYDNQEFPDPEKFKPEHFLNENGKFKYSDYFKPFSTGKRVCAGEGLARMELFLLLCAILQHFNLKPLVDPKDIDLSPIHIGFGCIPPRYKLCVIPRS
Details: recombinant enzyme
quantity.kind: IC50 (µM)
Form entry: value (µM) — number only.

Ask: Kindly state the measured IC50 obtained for COCC[C@H]1CC2CN3CCc4c([nH]c5ccccc45)[C@](C(=O)OC)(C2)[C@H]13 with CYP2E1 (Homo sapiens, UniProt P05181).
Reply: 28

###

Catalogue of pIC50 values
Target: rat α3β4 nicotinic acetylcholine receptor (nAChR) (Rattus norvegicus, UniProt P04757+P12392)
Construct: expressed in transfected cells; host or cells: HEK 293 (ATCC CRL1573), transient, Lipofectamine 2000
Experiment: cell-based
FYI, pIC50 means -log10 of a concentration in mol per litre.

INSERT INTO measurements (compound, meas_value) VALUES
  ('COC(=O)C12CC3CC(CC(=O)O)C1N(CCc1c2[nH]c2ccccc12)C3 (centres unmarked) [M5]', 4.24);

Next up:
Ask: Which pIC50 value belongs to COCCC1CC2CN3C=Cc4c([nH]c5ccccc45)C(C(=O)OC)(C2)C13 (centres unmarked) [M4] ?
Reply: 5.59

###

Experiment: Phase 1 first-in-human study, pharmacokinetics in plasma
Conditions: cohort A, 20 mg PO single dose
quantity.kind: Tmax, Max (h)
Form entry: value (h) — number only.

INSERT INTO measurements (compound, quantity_kind, meas_value) VALUES
  ('COCCC1CC2CN3C=Cc4c([nH]c5ccccc45)C(C(=O)OC)(C2)C13 (stereo not shown)', 'Tmax, Max', 2.0),
  ('COC(=O)C12CC3CC(CCO)C1N(C=Cc1c2[nH]c2ccccc12)C3 (stereo not shown)', 'Tmax, Max', 2.0),
  ('COC(=O)C12CC3CC(CC(=O)O)C1N(CCc1c2[nH]c2ccccc12)C3 (stereo not shown)', 'Tmax, Max', 1.0);

Next up:
Ask: Which Tmax, Max value belongs to COCC[C@H]1CC2CN3CCc4c([nH]c5ccccc45)[C@](C(=O)OC)(C2)[C@H]13 ?
Reply: 0.5
